# Assay Text: Plasma and inner ear fluid exposure after single oral gavage (Example 1)
# Assay type: in vivo, male Wistar rats
# Test Context: male, Wistar, plasma; rat, single oral 20 mg/kg, T0 + 6 hours; read-out: Concentration of xaliproden (hydrochloride salt), Plasma, Mean
Where a name gives a salt, the structure may show the parent alone.
Endpoint Label: concentration at 6 h (ng/mL)
The response must be a number in ng/mL with no trailing unit.

concentration at 6 h in this record for FC(F)(F)c1cccc(C2=CCN(CCc3ccc4ccccc4c3)CC2)c1 [xaliproden (hydrochloride salt)] : 28.4

###

# Assay Text: Plasma and inner ear fluid exposure after single oral gavage (Example 1)
# Format: in vivo, male Wistar rats
# Test Context: male, Wistar, plasma; rat, single oral 30 mg/kg, T0 + 24 hours; read-out: Concentration of paliroden (fumarate salt), Plasma, Mean
Structures can show the parent of a compound that is named as a salt.
Endpoint Label: concentration at 24 h (ng/mL)
The response must be a number in ng/mL with no trailing unit.

concentration at 24 h in this record for FC(F)(F)c1cccc(C2=CCN(CCc3ccc(-c4ccccc4)cc3)CC2)c1 [paliroden (fumarate salt)] : 1.7
